Biological target: SHIP2 (Homo sapiens, UniProt O15357)
Construct: purchased Echelon Biosciences
Sequence (O15357 whole entry): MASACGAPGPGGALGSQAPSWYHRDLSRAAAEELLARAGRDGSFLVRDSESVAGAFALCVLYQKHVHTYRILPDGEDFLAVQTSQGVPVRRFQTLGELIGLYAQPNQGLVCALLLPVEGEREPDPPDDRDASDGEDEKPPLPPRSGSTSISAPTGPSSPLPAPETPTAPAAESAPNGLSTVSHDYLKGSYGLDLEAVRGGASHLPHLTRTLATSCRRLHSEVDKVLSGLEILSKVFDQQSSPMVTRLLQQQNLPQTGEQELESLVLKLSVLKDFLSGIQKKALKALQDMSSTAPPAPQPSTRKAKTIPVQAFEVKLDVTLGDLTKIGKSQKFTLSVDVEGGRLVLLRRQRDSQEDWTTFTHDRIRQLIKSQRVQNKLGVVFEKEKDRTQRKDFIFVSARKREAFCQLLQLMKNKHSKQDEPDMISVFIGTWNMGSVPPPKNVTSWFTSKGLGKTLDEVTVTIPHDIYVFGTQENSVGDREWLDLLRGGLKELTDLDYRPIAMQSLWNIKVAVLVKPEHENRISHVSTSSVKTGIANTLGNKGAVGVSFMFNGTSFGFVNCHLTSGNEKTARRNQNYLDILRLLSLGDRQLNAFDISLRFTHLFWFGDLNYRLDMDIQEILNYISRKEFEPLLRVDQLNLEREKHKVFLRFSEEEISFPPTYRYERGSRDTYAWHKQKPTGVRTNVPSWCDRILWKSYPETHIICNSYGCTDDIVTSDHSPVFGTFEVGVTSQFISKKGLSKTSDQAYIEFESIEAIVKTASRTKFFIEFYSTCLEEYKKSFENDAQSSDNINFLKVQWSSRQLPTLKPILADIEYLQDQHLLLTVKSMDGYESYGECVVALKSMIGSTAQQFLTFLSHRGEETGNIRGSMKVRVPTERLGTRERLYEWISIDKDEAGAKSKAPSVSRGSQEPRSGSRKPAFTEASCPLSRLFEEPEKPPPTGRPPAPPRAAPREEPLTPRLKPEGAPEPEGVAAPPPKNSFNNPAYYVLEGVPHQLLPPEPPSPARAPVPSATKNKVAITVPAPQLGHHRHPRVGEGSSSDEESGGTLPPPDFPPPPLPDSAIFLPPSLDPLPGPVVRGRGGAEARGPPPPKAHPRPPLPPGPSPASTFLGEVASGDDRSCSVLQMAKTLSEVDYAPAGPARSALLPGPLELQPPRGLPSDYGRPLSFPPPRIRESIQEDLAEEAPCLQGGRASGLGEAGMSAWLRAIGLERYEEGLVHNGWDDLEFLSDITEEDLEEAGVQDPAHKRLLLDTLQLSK
Assay: Malachite green phosphatase release assay, SHIP2
Format: biochemical
Settings: summary of Table 1
Assay metric: activity against SHIP2 (in words)

molecule="CSc1ccc2c(c1)c(CCN)c(C)n2Cc1ccc(Cl)cc1.Cl [Compound 7b]" study_target="SHIP2 (Homo sapiens, UniProt O15357)" observed_measurement="significant activity"
molecule="CSc1ccc2c(c1)c(CCN)c(C)n2Cc1ccccc1Cl.Cl [Compound 1]" study_target="SHIP2 (Homo sapiens, UniProt O15357)" observed_measurement="significant activity"

---

Tested on: recombinant human truncated SHIP1 (tSHIP1)
Assay: Malachite green phosphatase release assay, SHIP1
Type: biochemical
Conditions: summary of Table 1
Method: These compounds were then tested for their activity against the two SHIP paralogs, SHIP1 and SHIP2 in the colorimetric malachite green phosphatase assay. […] Malachite green assays to monitor phosphatase release (Echelon Biosciences) were performed with recombinant human truncated SHIP1 (tSHIP1) and SHIP2 (Echelon Biosciences). […] Plates were then read at 620 nm on a plate reader (Synergy 2, BioTek, Santa Clara, CA, USA). […]
Assay metric: activity against SHIP1 (in words)

mol=CCNCCc1c(C)n(Cc2ccccc2Cl)c2ccc(SC)cc12 study_target="recombinant human truncated SHIP1 (tSHIP1)" observed_measurement="no inhibition"
mol=CSc1ccc2c(c1)c(CCN)c(C)n2Cc1ccc(Cl)cc1Cl.Cl study_target="recombinant human truncated SHIP1 (tSHIP1)" observed_measurement="significant activity"
mol=CSc1ccc2c(c1)c(CCN)c(C)n2Cc1ccc(Cl)cc1.Cl study_target="recombinant human truncated SHIP1 (tSHIP1)" observed_measurement="significant activity"
mol=CNCCc1c(C)n(Cc2ccccc2Cl)c2ccc(SC)cc12 study_target="recombinant human truncated SHIP1 (tSHIP1)" observed_measurement="no inhibition"
mol=CSc1ccc2c(c1)c(CCN)c(C)n2Cc1ccccc1Cl.Cl study_target="recombinant human truncated SHIP1 (tSHIP1)" observed_measurement="significant activity"
